B1: TPR t1 (parent)
chain: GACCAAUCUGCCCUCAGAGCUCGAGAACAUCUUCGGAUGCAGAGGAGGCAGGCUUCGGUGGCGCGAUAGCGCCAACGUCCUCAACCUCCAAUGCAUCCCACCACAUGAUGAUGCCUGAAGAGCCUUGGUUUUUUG

variants of: B1; experiment: polymerase ribozyme fitness, log enrichment relative to wild type (log ratio); higher = more active; in vitro selection for triplet polymerase activity
Attribute Measured: polymerase ribozyme fitness (log ratio)

[
  {
    "Residue String": "GAGCAAUCUGCCCUCAGAGCUCGAGAACAUCUUCGGAUGCAGAGGAGGCAGGCUUCGGUGGCGCGAUAGCGACAACGUCCUCAACCUCCAAUGCAUCCCACCACAUGAUGAUGCCUGAAGAGCCUUGGUUUUUUG [C3G C72A]",
    "Experimental Value": -1.64
  },
  {
    "Residue String": "GACCAAUCUGCCCUCAGAACUCGAGAACAUCUUCGGAUGCAGUGGAGGCAGGCUUCGGUGGCGCGAUAGCGCCAACGUCCUCAACCUCCAAUGCAUCCCAACACAUGAUGAUGCCUGAAGAGCCUUGGGUUUUUG [G19A A43U C101A U129G]",
    "Experimental Value": -4.15
  },
  {
    "Residue String": "GACCAAUCUGCCCUCAGAGCUCGAGAACAUCUUCGGAUGCAGAGGAGACAGACUUCGGUGGCGCGAUAGCGCCAACGUCCUCAACCUCCAAUGCAUCCCAGCACAUGAUGAUGCCUGAAGAGCCUUGGUUUUUUG [G48A G52A C101G]",
    "Experimental Value": -2.71
  },
  {
    "Residue String": "GACCAAUCUGCCCUCAGAGCUCGAGAACAUCUUCGGAUGCAGAGGACUCAGGCUUCGGUGGUGCGAUAGCGCCAACGUCCUCAAUCUCCAAUGCAUCCCACCACAUGUUGUUGCCUGAACACCCUUGGUUUUUUG [G47C G48U C62U C85U A108U A111U G120C G122C]",
    "Experimental Value": -6.85
  },
  {
    "Residue String": "GACCAAUCUGCCCUCAGAGCUCGAGAACAUCUUCGGAUGCAGAGGAGGCAAGCUUCGGUGGCGCGAUAGCGCCAACGUCCUCAACCUCCAAUGCAUCCCACCACAUGAUGAUGCCUGAAGAGCUUUGGUUUUUUG [G51A C124U]",
    "Experimental Value": -1.14
  },
  {
    "Residue String": "GACCAAUCUGCCCUCAGAGCUCGAGAACAUCUUAGGAUGCAGAGGAGGCAGGCUUCGGUGGCGCGAUAGCGUCAACGUCCUCAACCUCCAAUGCAUCCCACCACAUGAUGAUGCCGGAAGAGCCUUGGUUUUUUG [C34A C72U U116G]",
    "Experimental Value": -5.21
  },
  {
    "Residue String": "GACCAAUCUGCCCUCAGAGCUCGAGAACAUCUUCGGAUGCAGAGGAGGCAGCCUUCGGUGGCGCGAUAGCGCCAACGUCCUCAACCUCCAAUGCAUCCCACCACAUGAUGAUGCCUGAACAGCCUUGGUUUUUUG [G52C G120C]",
    "Experimental Value": -0.0985
  },
  {
    "Residue String": "GACCAAUCUGCCCUCAGAGCUCGAGAACAUCUUCGGAUGCAGAGGAGGCAGGCUUCGGUGGCGCGAUAGCGGCAACGUCCUCAACCUCCAAUGCAUCCCACCACAUGAUGAUGCCUGAACAGCCUUGCUUUUUUG [C72G G120C G128C]",
    "Experimental Value": -3.07
  },
  {
    "Residue String": "GACCAAUCUACCCUCAGUGCUCGAGAACAUCUUCGGAUGUAGAGGAGGCAGGCUUCGGGGGCGCGAUAGCGCCAACGUCCUCAACCUCCAAUACAUCCCACCACAUGAUGAUGCCUGAAGAGCCUUGGUUUUUUG [G10A A18U C40U U59G G93A]",
    "Experimental Value": -2.28
  },
  {
    "Residue String": "GACCAAUCUGCCCUCAGAGCUCGAGAACAUCUUCGGAUGCAGAGGAGGCAGGCUACGGUGGCACGAUAGCGCCAACGUCCUCAAGCUGCAAUGCAUCCCACCACAUGAUGAUGCCUGAAGAGCCUUGGUUUUUUG [U55A G63A C85G C88G]",
    "Experimental Value": -2.1
  },
  {
    "Residue String": "GACCAAGAUGCCCUCAGAGCUCGAGAACAUCUUCGGAUGCAGAGGAGGCAGGCUUCGGUGGCGCGAUAGCGCCAACGUCCUCAACUUCCAAUGCAUCCCACCACAUGAUGAUGCCUGAAGAGCCUUGGUUUUUUG [U7G C8A C86U]",
    "Experimental Value": 0.828
  },
  {
    "Residue String": "GACCAAUCUGACCUCAGAGCUCGAGAACAUCUUCGGAUGCAGAGGAGGCAGGCUUCGGUGGCGCGAUAGCGCCAACGACCUCAACCUCCAAUGCAUCCCACCACAUGAUGAUGCCUGAAAAGCCUUGGUUUUUUG [C11A U78A G120A]",
    "Experimental Value": 1.31
  },
  {
    "Residue String": "GACCAAUCUGCCCUCAGAGCUCGAGAACAUCUUCGGAUGCAGAGGAGGUAGGCUUCGGUGGCGCGAUAUCGCCAACGUCAUCAACCUCCAAUGCAUCCCACCACAUGAUGAUGCCUGAAGAGCCUUGGUUUUUUG [C49U G69U C80A]",
    "Experimental Value": -3.24
  },
  {
    "Residue String": "GACCAAUCUGCCCUCAGAGCUCGAGAACAUCUUCGGAUGCAGAGGAGGCAGGCUUCGGUGGCGCGAUAGCGCCAACGUCCUCAACCUCCAAUGCAUCCCACCACAUGAUGAUGCCUGAAGAGCCUUGGUUGUUUG [U131G]",
    "Experimental Value": -0.452
  },
  {
    "Residue String": "GACCAAUCUGCCCUCAGAGCUCGAGAACAUCUUCGGAUGCAGAGGAGGCAGGCUUGGGUGGCGCGAUAGCGCCAACGUCCUCAACCUCCAAUGCAUCCCACCACAUGAUGAUGCCUGAAGAGCCUUGGUUUUUUA [C56G G135A]",
    "Experimental Value": -1.39
  },
  {
    "Residue String": "GACCAAUGGGCCCUCAGAGCUCGAGAACAUCUUCGGAUGCAGAGGAGGCAGGCUUCGGUGGCGCGAUAGAGCCAACGUCCUCAACCUCCAAUGCAUCCCACCACAUGAUGAUGCCUGAAGAGCCUUGGUUUUUUG [C8G U9G C70A]",
    "Experimental Value": -1.19
  },
  {
    "Residue String": "GACCAAUCUUCCCUCAGAGCUCGAGAACAUCUUCGGAUGCAGAGGAGGCAGGCUACGGUGGCGCGAUAGCCCCAACGUCCUCAACCUCCAAUGCAUCCCACCACAUGAUGAUGCCUGAAGAGCCUUGGUUUUUUG [G10U U55A G71C]",
    "Experimental Value": -1.11
  },
  {
    "Residue String": "GACCAAUCUGCCAUCAGAGCUCGAGAACAUCUUCGGAUGCAGAGGAGGCAGGCUUCGGUGGCACGAUAGCGCCCACGUCCUCAACCUCCAAUGCAUCCCACCACAUGAUGAUGCCUGAAGAGCCUUGAUUUUUUG [C13A G63A A74C G128A]",
    "Experimental Value": -5.18
  },
  {
    "Residue String": "GACCAAUCUGCCCUCAGAGCUCGAGAACAUCUUCGGAUGCAGAGGAGGCAGGCUUCGGUGUCGCGAUAGCGCCAACGUCCUCAACCUCCAAUGCACCCCACCACAUGAUGAUGCCUGAAGAGCCUUGGUUUUUUG [G61U U96C]",
    "Experimental Value": 0.151
  },
  {
    "Residue String": "GACCAAUCUGCCCUCAGAGCUCGAGAACAUCUUCGGAUGCAGAGGAGGCUGGCUUCGGUGGCGUGAUAGCGACAACGUACUCAACCUCCAAUGCAUCCCAACACAUGAUGAUGCCUGAAGAGCCUUGGUUUUUUG [A50U C64U C72A C79A C101A]",
    "Experimental Value": -5.1
  },
  {
    "Residue String": "GACCAAUCUGCCCUCAGAGCUCGAGAACAUCUUCGGAUGCAGUGGAGGCAGGCUUCGGUCGCGCGAUAGCGCCAAGGACCUCAACCUCCAAUGCAUCCCACCACAUGAUGAUCCCUGAAGAGCCAUGGUUUUUUG [A43U G60C C76G U78A G113C U125A]",
    "Experimental Value": -4.6
  },
  {
    "Residue String": "GACCAAUCUGCUCUCAGAGCUCGAGAACUUCUUCGGAUGCAGAGGAGGCAGGCUUGGGUGGCGCGAUAGCGCCAACGUCCUCAACCGCCAAUGCAUCCCACCACAUGAUGAUGCCUGAAGAGCCUUGGUUUUUUG [C12U A29U C56G U87G]",
    "Experimental Value": -2.63
  },
  {
    "Residue String": "GACCAAUCUGCCCUCAGAGCUCGAGUACAUCUUCGGAUGCAGAGGAGGCAGGCUUCGGUGGCGCGAUAGCGCCAACGUCCUCAACCUCCAAUGCAACCCACCACAUGAUGAUGUCUAAAGAGCCUUGGUUUUUUG [A26U U96A C114U G117A]",
    "Experimental Value": -5.98
  },
  {
    "Residue String": "GACCAAUCUGCCCUCAGAGCUCGAGAACAUCUUCGGAUGCAGAGGAGGCAGGCUUCGGUGGUGCGAUAGCGCCAACGUCCUCAACCUCCAAUGCAUCCCACCACAUGAAGAUGCCUUACGAGCCUUGGUUUUUUG [C62U U109A G117U A119C]",
    "Experimental Value": -7.11
  },
  {
    "Residue String": "GACCAAUCUACGCUCAGAGCCCGAGAACAUCUUCGGAUGCAGAGGAGGCAGGCUUCGGUGGCGCGAUAGCGCCAACGUCCUCAACCUCCAAUGCAUCCCACCACAGGAUGAUGGCAGAAGAGCCUUGGUUUUUUG [G10A C12G U21C U106G C114G U116A]",
    "Experimental Value": -6.06
  },
  {
    "Residue String": "GACCAAUCUGCCCUCAGAGCUCGAGAACAUCUUCGGAUGCAGAGGGGGCAGGUUUCGGUGGCGCGAUAGCGCCAACGUCCUCAACCUCUAAUGCAUCCCACCACAUGAUGAUGCCUGAAGAGCCUUGAUUUUUUG [A46G C53U C89U G128A]",
    "Experimental Value": -3.9
  },
  {
    "Residue String": "GACCAAUUUGCCCUCAGAGCUCGAGAACAUCUUCGGAUGCAGGGGAGUCAGGCUUCGGUGGCGCGAUAGCGCCAACGUCCUCAACCUCCAAUGCAUCCCAACACAUGAUGAUGCCUGAAGAGCCUUGGUUUUUUG [C8U A43G G48U C101A]",
    "Experimental Value": -3.37
  },
  {
    "Residue String": "GACCAAUCUGCCCUCAGAGCUCGAGAACAUCUUCGGAUGGAGAGGAGGCAGGCUUCGGUGGCGCGAUAGCGCCAACGUCCUCAACCUGCAAUGCAUCCCACCACAUGAUGAUGCCUGAAGAGCCGUGGUUUUUUG [C40G C88G U125G]",
    "Experimental Value": -6.8
  },
  {
    "Residue String": "GACCAAUCUGCCCGCAGUGCUCGAGAACAUCUUCGGAUGCAGAGGAGGCAGGCUUCGGUGACGCGAUAGCGCCAACGUCCUCAACCUCCAAUGCAUCCCACCACAUGAUGAUGCAUGAAGAGCCUUGGAUUAUUG [U14G A18U G61A C115A U129A U132A]",
    "Experimental Value": -3.2
  },
  {
    "Residue String": "GACCAAUCUGCCCUCAGAGCUCGAGAACAUCUUCGGAUGCAGAGGAGGCAGGAUUCGGUGGCGCGAUAGCGCCAACGUCCUCAACCUCCAAUGCAUCCCACCACAUGAUGAUGCCUGAAGAGCUUUGGGUUUUUG [C53A C124U U129G]",
    "Experimental Value": -0.384
  },
  {
    "Residue String": "GACCAAUCAGCCCUCAGAGCUCGAGAACAUCUUCGGAUGCAGAGGAGGCAGGCUUCGGUGGCGCGAUAGCGCCAACGUCCUCAACCUCCAAUGCAUCCCACCACAUGAUGAUGCCUUAAGAGCCUUGGUUUUUUG [U9A G117U]",
    "Experimental Value": -1.08
  },
  {
    "Residue String": "GACCAAGCUGCCCUCCGAGCUCGAGAACAUCUUCGGAUGCAGAGGAGGCAGGCUGUGGUGGCGCGAUAGCGCCAACGUCCUCAGCCUCCAAUGCAUCCCACCACAUGAUGAUGCCUGAAGAGCCUUGGUUUUUUG [U7G A16C U55G C56U A84G]",
    "Experimental Value": -4.09
  },
  {
    "Residue String": "GACCCAUCUGCCCUCAGAGCUCGAGAACAUCUUCGGAUGCAGAGGUGGCAGGCUUCGGUGGCGCGAUAGCGCCAACGUCCUCCACGUCCAAUGCAUCCCACCACAUGAUGAUGACUAAAGAGCCUUGGUUUUUUG [A5C A46U A83C C86G C114A G117A]",
    "Experimental Value": -6.85
  },
  {
    "Residue String": "GACCAAUCUGCCCUCAGAGCUCGAGAACAUCUUCGGAUGCAGAGGAGGCAGGCUUCGGUGGCGCGAUAGCGCCAACGUCCUAAACCUCCAAUGCAUCCCACCACAUGAUGAUGCCUGAAGAGCCUUAGUUUUUUG [C82A G127A]",
    "Experimental Value": -2.18
  }
]

Data credit: the RNAGym collection of RNA variant scans (doi:10.1073/pnas.2313332121)
